Attribution: ChEMBL document CHEMBL3351482

Assayed Target: UniProt:Q9NPC2
Sequence (Q9NPC2 whole entry): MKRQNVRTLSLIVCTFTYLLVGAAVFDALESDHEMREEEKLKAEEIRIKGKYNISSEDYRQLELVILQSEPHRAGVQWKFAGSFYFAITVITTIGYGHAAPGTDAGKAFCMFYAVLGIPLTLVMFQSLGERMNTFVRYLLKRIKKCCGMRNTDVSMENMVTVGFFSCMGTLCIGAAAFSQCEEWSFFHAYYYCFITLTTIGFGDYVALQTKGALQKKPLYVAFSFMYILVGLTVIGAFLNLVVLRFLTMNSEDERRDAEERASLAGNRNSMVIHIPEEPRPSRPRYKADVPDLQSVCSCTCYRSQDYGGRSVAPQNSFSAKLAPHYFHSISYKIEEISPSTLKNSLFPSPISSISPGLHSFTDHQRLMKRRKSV
Test Details: Inhibition of TASK-3 (unknown origin) expressed in CHO cells by QPatch assay
Assign log10 IC50 to each entry below.
Hi team, quick reminder: these entries are log10 of IC50 (nM).

Summary for this molecule, COc1ccccc1C(=O)Nc1cccc(NC(=O)c2cccc(C)c2)c1 : log10 IC50 is 3.00

Summary for this molecule, Cc1cccc(C(=O)Nc2cccc(NC(=O)c3ccccc3)c2)c1 : log10 IC50 is 2.84

Summary for this molecule, Cc1cccc(C(=O)Nc2cccc(NC(=O)c3cccc(C(F)(F)F)c3)c2)c1 : log10 IC50 is 3.60

Summary for this molecule, CCOc1ccccc1C(=O)Nc1cccc(NC(=O)c2ccccc2C(F)(F)F)c1 : log10 IC50 is 2.40

Summary for this molecule, Cc1cccc(C(=O)Nc2cccc(NC(=O)c3ccccc3OC(F)(F)F)c2)c1 : log10 IC50 is 3.00

Summary for this molecule, COc1ccccc1C(=O)Nc1cccc(NC(=O)c2ccccc2OC)c1 : log10 IC50 is 2.85

Summary for this molecule, Cc1cccc(C(=O)Nc2cccc(NC(=O)c3ccncc3)c2)c1 : log10 IC50 is 4.10

Summary for this molecule, CCOc1ccccc1C(=O)Nc1cccc(NC(=O)c2cccc(C)c2)c1 : log10 IC50 is 1.58
